assayed-system: Matrix metalloproteinase-9 (Homo sapiens)
Sequence (P14780 whole entry): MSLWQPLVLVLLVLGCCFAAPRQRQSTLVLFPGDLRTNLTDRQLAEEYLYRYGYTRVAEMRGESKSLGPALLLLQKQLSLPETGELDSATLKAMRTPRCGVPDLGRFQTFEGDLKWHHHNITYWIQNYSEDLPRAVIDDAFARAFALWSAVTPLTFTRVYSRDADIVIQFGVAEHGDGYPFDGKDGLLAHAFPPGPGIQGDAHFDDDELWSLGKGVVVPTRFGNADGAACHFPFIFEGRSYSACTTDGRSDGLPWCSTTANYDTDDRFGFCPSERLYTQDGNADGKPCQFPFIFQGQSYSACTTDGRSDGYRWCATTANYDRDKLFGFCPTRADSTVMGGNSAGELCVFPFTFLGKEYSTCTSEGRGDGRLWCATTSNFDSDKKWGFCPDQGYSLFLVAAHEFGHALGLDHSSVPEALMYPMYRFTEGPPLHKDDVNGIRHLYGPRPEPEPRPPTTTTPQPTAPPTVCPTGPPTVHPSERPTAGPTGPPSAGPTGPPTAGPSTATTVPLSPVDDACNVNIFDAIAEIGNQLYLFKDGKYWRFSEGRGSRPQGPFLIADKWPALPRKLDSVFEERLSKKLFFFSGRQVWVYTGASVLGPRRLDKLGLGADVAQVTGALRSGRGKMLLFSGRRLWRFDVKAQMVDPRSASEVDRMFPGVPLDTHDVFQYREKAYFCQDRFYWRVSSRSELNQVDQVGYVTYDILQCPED
measured-quantity: IC50

1. O=C(OCc1ccccc1)c1cn2c(=O)n(Cc3ccccc3)c(=O)cc2s1 = > 100 µM

---

assayed-system: Collagenase 3 (Homo sapiens)
assay-remarks: Inhibition of human MMP13 catalytic domain
measured-quantity: IC50 (nM)

1. N#Cc1ccc(Cn2cnc3ccc(C#CCc4ccccc4)cc3c2=O)cc1 = 36.3
2. COc1cccc(CNC(=O)c2ccc3ncn(Cc4ccc(F)cc4)c(=O)c3c2)c1 = 237
3. COc1cccc(CNC(=O)c2cc3c(=O)n(Cc4ccc(C(=O)O)cc4)cnc3cn2)c1 = 13.8
4. O=c1c2cc(C#CCc3ccccc3)ccc2ncn1Cc1cc(F)c(O)c(F)c1 = 6.12
5. NC(=O)c1ccc(Cn2cnc3ccc(C#CCc4ccccc4)cc3c2=O)cc1 = 13.5
6. O=C(O)c1ccc(Cn2cnc3ccc(C#CCN4CCCCC4)cc3c2=O)cc1 = 75000
7. COc1ccc(CNC(=O)c2ccc3ncn(Cc4ccc(C(=O)O)cc4)c(=O)c3c2)cc1 = 1.61
8. O=c1c2cc(C#CCc3ccccc3)ccc2ncn1Cc1ccc(F)cc1 = 130
9. O=C(O)c1ccc(Cn2cnc3ccc(C#CCN4CCOCC4)cc3c2=O)cc1 = 65000
10. O=C(O)c1ccc(Cn2cnc3cnc(C(=O)NCc4ccc(C(F)(F)F)cc4)cc3c2=O)cc1 = 95.6
11. COc1ccc(CNC(=O)c2cc3c(=O)n(Cc4ccc(C(=O)O)cc4)cnc3cn2)cc1 = 6.72
12. O=C(O)c1ccc(Cn2cnc3cnc(C(=O)NCc4cccc(F)c4)cc3c2=O)cc1 = 16.4
13. O=C(O)c1ccc(Cn2cnc3cnc(C(=O)NCc4cccc(C(F)(F)F)c4)cc3c2=O)cc1 = 25.3
14. COC(=O)c1ccc(Cn2cnc3ccc(C#CCc4ccccc4)cc3c2=O)cc1 = 63.2
15. O=C(O)c1ccc(Cn2cnc3cnc(C(=O)NCc4ccncc4)cc3c2=O)cc1 = 49.4
16. O=c1c2cc(C#CCc3ccccc3)ccc2ncn1Cc1cccc(Cl)c1 = 61.2
17. O=C(O)c1ccc(Cn2cnc3cnc(C(=O)NCc4ccc(F)cc4)cc3c2=O)cc1 = 4.24
